- experimental-protocol: Oral bioavailability in dog at 5 mg/kg
- Format: ADME, organism-based, Canis lupus familiaris
- assay-conditions: in vivo
readout-name: bioavailability (%)

- structure-as-smiles: "Cn1cncc1[C@@](C)(O)C1=Cc2cccnc2[C@@H](N2CCN(C(=O)OC(C)(C)C)CC2)c2ccc(Cl)cc21"
  readout-name: "bioavailability"
  numeric-value: 34

====

The compounds listed here are annotated with their log10(IC50).
- tested-system: Protein farnesyltransferase (Homo sapiens, UniProt P49354+P49356)
- experimental-protocol: Inhibition of FTase (unknown origin) assessed as transfer of [H3]farnesyl from [H3]farnesyl pyrophosphate to trichloroacetic acid-precipitable HaRas-CVLS
readout-name: log10(IC50) (log10 of the value in nM)

- compound: "Cn1cncc1[C@](C)(O)C1=Cc2cccnc2[C@@H](N2CCN(C(=O)Nc3ccc(C#N)cc3)CC2)c2ccc(Cl)cc21"
  numeric-value: 0.26
- compound: "Cn1cncc1[C@@](C)(O)C1=Cc2cccnc2[C@@H](N2CCN(C(=O)OC3CCCCC3)CC2)c2ccc(Cl)cc21"
  numeric-value: 0.23
- compound: "Cn1cncc1C(C)(O)C1=Cc2cccnc2[C@@H](N2CCN(C(=O)OC(C)(C)C)CC2)c2ccc(Cl)cc21 (mixture of isomers)"
  numeric-value: 0.26
- compound: "Cn1cncc1[C@@](C)(O)C1=Cc2cccnc2[C@@H](N2CCN(C(=O)OC3CCCC3)CC2)c2ccc(Cl)cc21"
  numeric-value: -0.22
- compound: "Cn1cncc1[C@H](O)C1=Cc2cccnc2[C@@H](N2CCN(C(=O)OC(C)(C)C)CC2)c2ccc(Cl)cc21"
  numeric-value: -0.52
- compound: "Cn1cncc1[C@@](C)(O)C1=Cc2cccnc2[C@@H](N2CCN(C(=O)OC3(C)CCCCC3)CC2)c2ccc(Cl)cc21"
  numeric-value: 0.74
- compound: "Cn1cncc1[C@](C)(O)C1=Cc2cccnc2[C@@H](N2CCN(C(=O)OC(C)(C)C)CC2)c2ccc(Cl)cc21"
  numeric-value: 0.41
- compound: "Cn1cncc1[C@@](C)(O)C1=Cc2cccnc2[C@@H](N2CCN(C(N)=O)CC2)c2ccc(Cl)cc21"
  numeric-value: -1.00
- compound: "Cn1cncc1[C@](C)(O)C1=Cc2cccnc2[C@@H](N2CCN(C(=O)OC3CCCCC3)CC2)c2ccc(Cl)cc21"
  numeric-value: 0.15
- compound: "CC(C)OC(=O)N1CCN([C@H]2c3ccc(Cl)cc3C([C@](C)(O)c3cncn3C)=Cc3cccnc32)CC1"
  numeric-value: -0.70
- compound: "Cn1cncc1[C@@H](O)C1=Cc2cccnc2[C@@H](N2CCN(C(=O)OC(C)(C)C)CC2)c2ccc(Cl)cc21"
  numeric-value: 1.08

====

- experimental-protocol: Oral bioavailability in rat at 10 mg/kg
- Assay type: ADME, organism-based
- assay-conditions: in vivo
readout-name: bioavailability (%)

- structure-as-smiles: "Cn1cncc1[C@@](C)(O)C1=Cc2cccnc2[C@@H](N2CCN(C(=O)OC(C)(C)C)CC2)c2ccc(Cl)cc21"
  readout-name: "bioavailability"
  numeric-value: 34

====

- experimental-protocol: Oral bioavailability in monkey at 5 mg/kg
- Assay type: ADME, organism-based, Macaca mulatta
- assay-conditions: rhesus monkey, in vivo

- structure-as-smiles: "Cn1cncc1[C@@](C)(O)C1=Cc2cccnc2[C@@H](N2CCN(C(=O)OC(C)(C)C)CC2)c2ccc(Cl)cc21"
  bioavailability / %: 34
